meta.source: patent US4837239A

Test: Water solubility after complexation with ascorbic acid and lyophilization
Format: physicochemical
Details: pH 2; pH2, 10% ascorbic acid, lyophilized (FIG. 5); read-out: water solubility after lyophilization procedure
measureName: solubility

Provide measured solubility value, entry: CN(C(=O)CCCOc1ccc2c(c1)CN1CC(=O)NC1=N2)C1CCCCC1
~5000 µg/mL
